- Test target: T1, human CD47 (R & D systems) (human, UniProt Q08722 19-139)
- T1 construct: The Octet analyte was bought (R&D Systems); also called Human CD47 antigen; hCD47
- Assay info: BLI (Octet), His-tagged VHH on anti-penta-His tips, soluble human CD47
Measured parameter: kon (M⁻¹ s⁻¹)

A09-08 (VHH, not shown: C-terminal His-tag) VHH: QVQLVESGGGLVQAGGSLRLSCAASGYGVNSYALGWFRQAPGKEREFVAAISRSGGNINYADSAKGRFTISRDNFKNTTYLQMSSLKPEDTAVYYCAAHYLLLPSYISTSTNMYNYWGQGTQVTVSS
33300
A09-10 (VHH, not shown: C-terminal His-tag) VHH: QVQLVESGGGLVQAGGSLRLSCAASGGGRTFSNYALGWFRQAPGKEREFVAAISRSGGNINYADSAKGRFTISRDNFKNTTYLQMSSLKPEDTAVYYCAAHYLLLPSYISTSTNMYNYWGQGTQVTVSS
42700
